Tested on: SF-539
Assay: NCI tumour cell line growth inhibition, 48 h
Activity calls are given as the source filed them. Rule as the data show it: active = GI50 up to about 1.1 µM and inactive = higher.
Measured GI50 values are reported for all entries that follow.
Quantity kind: GI50

>>> assay_result("COc1ccc(C(c2ccc(C(C)C)cc(=O)c2O)c2c(O)cc3oc(-c4ccccc4)cc(=O)c3c2O)cc1 (stereo not given)")
"3.05 µM (inactive)"
>>> assay_result("CN(C)CCCN1C(=O)N(CCCN(C)C)c2c3cc(O)ccc3nc3c([N+](=O)[O-])ccc1c23")
"16 µM (inactive)"
>>> assay_result("N#Cc1c(-c2ccccc2)c2c([nH]c1=O)-c1cc([N+](=O)[O-])ccc1CCC2")
"27.7 µM (inactive)"
>>> assay_result("CC#CCCCC1(C)CCNC1=S (stereo not given)")
"> 10 µM (inactive)"
>>> assay_result("COc1ccc2nc3c(C(=O)NCCN(C)C)cccc3cc2c1")
"3.15 µM (inactive)"
